Data credit: patent US20260234242A1

- TARGET_OR_TEST_SYSTEM: T1, human CDH6 on tumor cells (OVCAR3 cells, PA-1 cells) (human, UniProt P55285 54-790)
- T1 sequence: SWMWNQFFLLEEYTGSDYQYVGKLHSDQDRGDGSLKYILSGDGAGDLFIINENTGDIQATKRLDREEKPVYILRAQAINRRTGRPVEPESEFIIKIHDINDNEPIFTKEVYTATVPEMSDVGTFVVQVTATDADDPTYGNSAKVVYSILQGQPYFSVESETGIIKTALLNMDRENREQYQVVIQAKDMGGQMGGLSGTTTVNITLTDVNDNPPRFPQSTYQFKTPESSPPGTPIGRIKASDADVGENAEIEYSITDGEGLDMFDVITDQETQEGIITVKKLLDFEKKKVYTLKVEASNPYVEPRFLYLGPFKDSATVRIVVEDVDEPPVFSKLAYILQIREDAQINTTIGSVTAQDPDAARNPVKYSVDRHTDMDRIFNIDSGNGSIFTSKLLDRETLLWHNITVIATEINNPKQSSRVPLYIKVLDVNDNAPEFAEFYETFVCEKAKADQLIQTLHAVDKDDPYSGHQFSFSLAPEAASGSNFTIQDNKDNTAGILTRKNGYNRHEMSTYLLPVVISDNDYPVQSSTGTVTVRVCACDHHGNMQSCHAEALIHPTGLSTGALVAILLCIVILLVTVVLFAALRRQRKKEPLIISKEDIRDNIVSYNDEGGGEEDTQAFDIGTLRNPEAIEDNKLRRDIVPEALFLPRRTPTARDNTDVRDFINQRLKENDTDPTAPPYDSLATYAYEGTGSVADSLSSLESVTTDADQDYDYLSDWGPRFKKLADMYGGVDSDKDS
- ASSAY_PROCEDURE: FACS, OVCAR3 cells
METRIC: pEC50
On this scale, pEC50 is minus log10 of a concentration expressed in M (mol/L).

>  <BINDER>
hCDH6-6-H2L5 (antibody, V domains shown, Humanized) VH: EVQLVQSGAEVKKPGASVKVSCKASGYTFTDYYMAWVRQAPGQGLEWMGYIFPNSGGTDYSQKFKGRVTLTVDKSTSTVYMELSSLRSEDTAVYYCARELGADYGDYYAMDHWGQGTTVTVSS VL: DIVMTQSPLSLPVTPGEPASISCRASENIDSYLAWYLQKPGKSPQLLVYSATLLADGVPDRFSGSGSGTDFTLKISRVEAEDVGVYYCQHYYRTPPTFGQGTKLEIK

>  <EXPERIMENTAL_RESULT>
9.19

$$$$

Could you now look at the following binder, please?
Lookup: Which measured pEC50 value corresponds to hCDH6-6-H2L2 (antibody, V domains shown, Humanized) VH: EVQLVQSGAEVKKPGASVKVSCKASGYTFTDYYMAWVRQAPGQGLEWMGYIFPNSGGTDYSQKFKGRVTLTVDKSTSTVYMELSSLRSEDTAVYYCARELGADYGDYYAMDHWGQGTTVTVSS VL: DIQMTQSPSSLSASVGDRVTITCRASENIDSYLAWYQQKPGKSPKLLVYSATLLADGVPSRFSGSGSGTDYTLTISSLQPEDFATYYCQHYYRTPPTFGQGTKLEIK ?
Found: 9.25
